# ASSAY_DETAILS: Tested for the half life period at the pH of 2.5
# Format: ADME
# TEST_CONDITIONS: pH 2.5
MEASUREMENT_LABEL: half-life (h)
Number only, in h; omit the unit.

| MOLECULE_SMILES | READOUT_UNIT | ASSAY_VALUE |
| --- | --- | --- |
| C[C@]1(C(=O)O)CSC(c2ncccc2O)=N1 | h | 18.6 |
| N[C@@H](CSC(=O)c1ccccc1O)C(=O)O | h | 4.18 |
| O=C(O)[C@@H]1CSC(c2ccccc2O)=N1 | h | 31.7 |

# next molecule below
Which half-life value belongs to `O=C(O)[C@@H]1CSC(c2ncccc2O)=N1` ? 8.74
